Heads up, these compounds all have pKi values measured for Oxytocin receptor (Homo sapiens, UniProt P30559).
One number for each entry, as −log10 of the molar value.

Worked examples follow.
CC(=O)CCCC(=O)NC1N=C(c2ccccc2)c2ccccc2N(CC(=O)N[C@@H](Cc2ccc(F)cc2)C(N)=O)C1=O (stereo partly drawn) = 7.10
CC(=O)CCCC(=O)NC1N=C(c2ccccc2)c2ccccc2N(CC(=O)NCCc2ccccc2Cl)C1=O (stereo not drawn) = 6.70
CS(=O)(=O)NC1N=C(c2ccccc2)c2ccccc2N(CC(=O)N[C@@H](Cc2ccc(Cl)c(Cl)c2)C(N)=O)C1=O (stereo partly drawn) = 6.30

List reported pKi for each of these compounds:
1. NC(=O)[C@H](Cc1ccc(Cl)c(Cl)c1)NC(=O)CN1C(=O)C(NC(=O)CN2CCOCC2)N=C(c2ccccc2)c2ccccc21 (stereo partly drawn)
2. CC(=O)NC1N=C(c2ccccc2)c2ccccc2N(CC(=O)NCCc2cccc3ccccc23)C1=O (stereo not drawn)
3. CC(=O)CCCC(=O)NC1N=C(c2ccccc2)c2ccccc2N(CC(=O)NCCc2ccc(Cl)c(Cl)c2)C1=O (stereo not drawn)

Response line:
7.40
7.00
7.60

List reported pKi for each of these compounds:
1. CC(=O)NC1N=C(c2ccccc2)c2ccccc2N(CC(=O)NCc2nc(-c3ccccc3)no2)C1=O (stereo not drawn)
2. CC(=O)NC1N=C(c2ccccc2)c2ccccc2N(CC(=O)N(C)CCc2cccc(Cl)c2)C1=O (stereo not drawn)
3. CC(=O)NC1N=C(c2ccccc2)c2ccccc2N(CC(=O)NCCc2ccc(Cl)c(Cl)c2)C1=O (stereo not drawn)
4. CC(=O)CCCC(=O)NC1N=C(c2ccccc2)c2ccccc2N(CC(=O)NCCCc2cccc(Cl)c2)C1=O (stereo not drawn)
5. CC(=O)CCCC(=O)NC1N=C(c2ccccc2)c2ccccc2N(CC(=O)NCCc2ccccc2)C1=O (stereo not drawn)
6. CC(=O)CCCC(=O)NC1N=C(c2ccccc2)c2ccccc2N(CC(=O)N[C@@H](CC2CCCCC2)C(N)=O)C1=O (stereo partly drawn)

Response line:
[6.10, 5.80, 7.00, 7.00, 6.50, 6.10]

* * *

Assay: Volume distribution was determined
Type: ADME, organism-based, Canis lupus familiaris
Conditions: dog, in vivo
Metric name: Vd (L/kg)
Give bare numbers, in L/kg.

Worked examples follow.
CC(=O)CCCC(=O)NC1N=C(c2ccccc2)c2ccccc2N(CC(=O)N[C@@H](Cc2ccc(Cl)c(Cl)c2)C(N)=O)C1=O (stereo partly specified) = 0.6
NC(=O)[C@H](Cc1ccc(Cl)c(Cl)c1)NC(=O)CN1C(=O)C(NC(=O)CN2CCOCC2)N=C(c2ccccc2)c2ccccc21 (stereo partly specified) = 2.8
CC(=O)CCCC(=O)NC1N=C(c2ccccc2)c2ccccc2N(CC(=O)NCCc2ccc(Cl)c(Cl)c2)C1=O (stereo unspecified) = 0.2
CC(=O)NC1N=C(c2ccccc2)c2ccccc2N(CC(=O)NCCc2cccc(Cl)c2)C1=O (stereo unspecified) = 0.4
CC(=O)CCCC(=O)NC1N=C(c2ccccc2)c2ccccc2N(CC(=O)NC2CCc3ccccc3C2)C1=O (stereo unspecified) = 0.2

// next entry
Prompt line: Query (compound): CC(=O)CCCC(=O)NC1N=C(c2ccccc2)c2ccccc2N(CC(=O)NCCc2cccc(Cl)c2)C1=O (stereo unspecified) ; field requested: Vd
Response line: 0.3

* * *

Assay: Plasma clearance was determined
Type: ADME, organism-based, Canis lupus familiaris
Conditions: dog
Kindly supply the reported clearance values for the records listed here.
Hi, when you answer, please include the unit after the number. Thanks!

CC(=O)CCCC(=O)NC1N=C(c2ccccc2)c2ccccc2N(CC(=O)N[C@@H](Cc2ccc(Cl)c(Cl)c2)C(N)=O)C1=O (stereo partly specified) = 62 mL/min/kg
CC(=O)CCCC(=O)NC1N=C(c2ccccc2)c2ccccc2N(CC(=O)NCCc2cccc(Cl)c2)C1=O (stereo unspecified) = 3 mL/min/kg
CC(=O)NC1N=C(c2ccccc2)c2ccccc2N(CC(=O)NCCc2cccc(Cl)c2)C1=O (stereo unspecified) = 6 mL/min/kg
CC(=O)CCCC(=O)NC1N=C(c2ccccc2)c2ccccc2N(CC(=O)NCCc2ccc(Cl)c(Cl)c2)C1=O (stereo unspecified) = 4 mL/min/kg
CC(=O)CCCC(=O)NC1N=C(c2ccccc2)c2ccccc2N(CC(=O)NC2CCc3ccccc3C2)C1=O (stereo unspecified) = 0.3 mL/min/kg

// next entry
Prompt line: Query (compound): NC(=O)[C@H](Cc1ccc(Cl)c(Cl)c1)NC(=O)CN1C(=O)C(NC(=O)CN2CCOCC2)N=C(c2ccccc2)c2ccccc21 (stereo partly specified) ; field requested: clearance
Response line: 33 mL/min/kg

* * *

Assay: Bioavailability
Assay type: ADME, organism-based, Canis lupus familiaris
Settings: dog, in vivo
Metric name: bioavailability (%)
Give bare numbers, in %.

Prompt line: Query (compound): CC(=O)CCCC(=O)NC1N=C(c2ccccc2)c2ccccc2N(CC(=O)NCCc2ccc(Cl)c(Cl)c2)C1=O (configuration not stated) ; field requested: bioavailability
Response line: 12

* * *

Molecular target: Oxytocin receptor (Homo sapiens)
Sequence (P30559 whole entry): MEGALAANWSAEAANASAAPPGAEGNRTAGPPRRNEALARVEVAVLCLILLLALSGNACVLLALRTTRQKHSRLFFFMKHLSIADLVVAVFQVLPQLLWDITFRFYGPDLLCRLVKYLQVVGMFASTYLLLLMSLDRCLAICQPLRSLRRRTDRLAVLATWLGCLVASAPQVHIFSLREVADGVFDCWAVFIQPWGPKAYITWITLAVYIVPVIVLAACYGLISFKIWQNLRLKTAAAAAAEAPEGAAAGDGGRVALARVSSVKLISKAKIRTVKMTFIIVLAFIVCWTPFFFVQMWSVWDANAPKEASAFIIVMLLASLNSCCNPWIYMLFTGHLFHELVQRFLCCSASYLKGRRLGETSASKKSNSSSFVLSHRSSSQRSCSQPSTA
pKi: −log10 of the molar value.
Record T whenever pKi is at 7 or higher; record F when lower.

Here's what some known entries look like.
CC(=O)CCCC(=O)NC1N=C(c2ccccc2)c2ccccc2N(CC(=O)NC2=NOC(c3ccccc3)C2)C1=O (stereo unspecified) = F
CC(=O)CCCC(=O)NC1N=C(Cn2ccnc2)c2ccccc2N(CC(=O)N[C@@H](Cc2ccc(Cl)c(Cl)c2)C(N)=O)C1=O (stereo partly specified) = F
CC(=O)CCCC(=O)NC1N=C(c2ccccc2)c2ccccc2N(CC(=O)NCCc2cccc3ccccc23)C1=O (stereo unspecified) = T
CC(=O)NC1N=C(c2ccccc2)c2ccccc2N(CC(=O)N[C@H](Cc2ccc(Cl)c(Cl)c2)C(N)=O)C1=O (stereo partly specified) = F

Prompt line: Entry CC(=O)CCCC(=O)NC1N=C(c2ccccc2)c2ccccc2N(CC(=O)NCCc2ccc3ccccc3c2)C1=O (stereo unspecified) : is its pKi no less than 7?
Response line: T

Prompt line: Entry CC(=O)CCCC(=O)NC1N=C(c2ccccc2)c2ccccc2N(CC(=O)NCCc2cccc(Cl)c2)C1=O (stereo unspecified) : is its pKi no less than 7?
Response line: T

Prompt line: Entry CC(=O)NC1N=C(c2ccccc2)c2ccccc2N(CC(=O)NCc2nc(-c3ccc(Cl)c(Cl)c3)cs2)C1=O (stereo unspecified) : is its pKi no less than 7?
Response line: F

Prompt line: Entry CC(=O)CCCC(=O)NC1N=C(c2ccccc2)c2ccccc2N(CC(=O)N[C@@H](Cc2ccc(Cl)c(Cl)c2)C(N)=O)C1=O (stereo partly specified) : is its pKi no less than 7?
Response line: T

Prompt line: Entry CC(=O)CCCC(=O)NC1N=C(c2ccccc2)c2ccccc2N(CC(=O)NC2CCc3ccccc3C2)C1=O (stereo unspecified) : is its pKi no less than 7?
Response line: F

Prompt line: Entry CC(=O)NC1N=C(c2ccccc2)c2ccccc2N(CC(=O)N[C@@H](Cc2ccc(Cl)c(Cl)c2)C(N)=O)C1=O (stereo partly specified) : is its pKi no less than 7?
Response line: T
